Property: pKi; scope: individual compounds
Target: UniProtKB P37231
Sequence (P37231 1-505): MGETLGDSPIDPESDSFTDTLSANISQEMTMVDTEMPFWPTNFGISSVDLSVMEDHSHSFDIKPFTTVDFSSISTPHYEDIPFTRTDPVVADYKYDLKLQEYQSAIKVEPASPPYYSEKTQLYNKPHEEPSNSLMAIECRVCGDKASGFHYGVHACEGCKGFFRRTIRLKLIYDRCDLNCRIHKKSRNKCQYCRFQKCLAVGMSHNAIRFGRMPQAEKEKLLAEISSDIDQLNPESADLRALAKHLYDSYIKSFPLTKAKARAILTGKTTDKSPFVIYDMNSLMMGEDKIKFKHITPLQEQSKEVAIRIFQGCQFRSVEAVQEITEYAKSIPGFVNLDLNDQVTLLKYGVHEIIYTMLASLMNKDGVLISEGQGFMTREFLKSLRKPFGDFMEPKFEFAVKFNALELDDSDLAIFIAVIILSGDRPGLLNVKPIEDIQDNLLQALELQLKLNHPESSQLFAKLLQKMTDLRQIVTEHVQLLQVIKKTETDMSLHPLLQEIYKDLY
pKi: −log10 of the molar value.

>  <compound.structure>
CCC(=O)N(CCOc1ccc(C[C@H](Nc2ccccc2C(=O)c2ccccc2)C(=O)O)cc1)c1ccc(Cl)cc1

>  <pKi>
5.82 to 6.30

$$$$
>  <compound.structure>
Cc1ccc(N(CCOc2ccc(C[C@H](Nc3ccccc3C(=O)c3ccccc3)C(=O)O)cc2)C(=O)C(C)C)cc1

>  <pKi>
< 5.82

$$$$
>  <compound.structure>
Cc1cccc(N(CCCOc2ccc(C[C@H](Nc3ccccc3C(=O)c3ccccc3)C(=O)O)cc2)CC(C)C)c1

>  <pKi>
> 6.30

$$$$
>  <compound.structure>
O=C(c1ccccc1)c1ccccc1N[C@@H](Cc1ccc(OCCCN(CC2CC2)C(=O)C2CCCC2)cc1)C(=O)O

>  <pKi>
> 6.30

$$$$
>  <compound.structure>
CC(=O)N(CCOc1ccc(C[C@H](Nc2ccccc2C(=O)c2ccccc2)C(=O)O)cc1)c1ccc2ccccc2c1

>  <pKi>
5.82 to 6.30

$$$$
>  <compound.structure>
O=C(c1ccccc1)c1ccccc1N[C@@H](Cc1ccc(OCCCN(CC2CC2)C(=O)Cc2ccccc2)cc1)C(=O)O

>  <pKi>
> 6.30

$$$$
>  <compound.structure>
O=C(c1ccccc1)c1ccccc1N[C@@H](Cc1ccc(OCCCN(Cc2ccccc2)C(=O)Cc2cccnc2)cc1)C(=O)O

>  <pKi>
5.82 to 6.30

$$$$
